Data provenance: patent US10757937B2

- measured-target: PYL5 (Arabidopsis thaliana)
- Construct: 6X-His; made in house; host or cells: E. coli BL21[DE3]pLysS
- protocol-details: receptor-mediated PP2C (HAB1) inhibition in vitro assay
- Type: biochemical
- condition-notes: compound at 25 μM; control without agonist = 100%
// N strictly below 40% in PP2C Activity (25 μm) PYL5; Y otherwise

Here are 2 molecules together with their reported answers.
Has N#Cc1ccc(CS(=O)(=O)NC(=O)C2(c3ccc(Br)cc3)CCC2)cc1 [Compound 31] a recorded PP2C Activity (25 μm) PYL5 greater than or equal to 40%?
Y

// inclusive: PP2C Activity (25 μm) PYL5 at least 40%? input: N#Cc1ccc(CS(=O)(=O)NC(=O)C2(c3ccc(C(F)(F)F)cc3)CC2)cc1 [Compound 45]
N

***
Would you say COc1ccc(C(C)(C)C(=O)NS(=O)(=O)Cc2ccc(C#N)cc2)cc1 [Compound 22] shows PP2C Activity (25 μm) PYL5 at minimum 40%?
Y

Is PP2C Activity (25 μm) PYL5 at least 40%? Consider N#Cc1ccc(CS(=O)(=O)NC(=O)C2(c3ccccc3)CCN(S(=O)(=O)c3ccccc3)CC2)cc1 [Compound 60]
Y

In plain terms: is recorded PP2C Activity (25 μm) PYL5 at least 40% for CC(C)(C(=O)NS(=O)(=O)Cc1ccc(C#N)cc1)c1ccc(Br)cc1 [Compound 2] ?
N

Record CC(C)(C(=O)NS(=O)(=O)Cc1ccc(C#N)cc1)c1ccc(C(F)(F)F)cc1 [Compound 11] ; criterion: PP2C Activity (25 μm) PYL5 no lower than 40%. Met?
Y

Does PP2C Activity (25 μm) PYL5 meet or surpass 40% for CC(C)COc1ccc(C(C)(C)C(=O)NS(=O)(=O)Cc2ccc(C#N)cc2)cc1 [Compound 14] ?
Y

Textbook exercise: given the entry N#Cc1ccc(CS(=O)(=O)NC(=O)C2(c3cccc(F)c3)CCC2)cc1 [Compound 33] , state whether its PP2C Activity (25 μm) PYL5 is greater than or equal to 40%.
Y

----------
- measured-target: PYL5 (Arabidopsis thaliana, UniProt Q9FLB1)
- Construct: 6X-His; made in house; host or cells: E. coli BL21[DE3]pLysS
- Sequence (Q9FLB1 whole entry): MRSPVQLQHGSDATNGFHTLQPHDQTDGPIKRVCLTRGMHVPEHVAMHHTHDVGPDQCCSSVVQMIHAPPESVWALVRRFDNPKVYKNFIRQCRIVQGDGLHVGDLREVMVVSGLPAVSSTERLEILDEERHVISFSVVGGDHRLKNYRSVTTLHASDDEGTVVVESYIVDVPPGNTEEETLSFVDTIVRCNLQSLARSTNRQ
- Sequence (Q9CAJ0 23-511 partner): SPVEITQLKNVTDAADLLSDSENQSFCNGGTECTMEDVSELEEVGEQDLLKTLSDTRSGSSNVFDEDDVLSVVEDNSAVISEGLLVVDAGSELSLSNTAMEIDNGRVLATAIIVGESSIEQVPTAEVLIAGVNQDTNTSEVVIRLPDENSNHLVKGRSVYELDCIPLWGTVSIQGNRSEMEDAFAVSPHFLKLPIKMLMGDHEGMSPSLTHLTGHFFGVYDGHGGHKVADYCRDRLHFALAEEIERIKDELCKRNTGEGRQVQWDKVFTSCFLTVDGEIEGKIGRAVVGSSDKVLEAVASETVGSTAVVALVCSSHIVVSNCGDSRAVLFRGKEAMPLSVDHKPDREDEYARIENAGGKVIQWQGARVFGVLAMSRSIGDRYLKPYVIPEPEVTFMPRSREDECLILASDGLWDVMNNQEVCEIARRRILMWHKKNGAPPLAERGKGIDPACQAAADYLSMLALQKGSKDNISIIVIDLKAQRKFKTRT
- protocol-details: receptor-mediated PP2C (HAB1) inhibition in vitro assay
- Type: biochemical
- condition-notes: compound at 25 μM; control without agonist = 100%
measured-endpoint: PP2C Activity (25 μm) PYL5 (%)
Write the value in % as a bare number.

Worked set:
Input COc1ccc(C(C)(C)C(=O)NS(=O)(=O)Cc2ccc(C#N)cc2)cc1OC [Compound 21] , output reported PP2C Activity (25 μm) PYL5.
89

Answer with the recorded PP2C Activity (25 μm) PYL5 for the compound listed here: CC(C)(C)c1ccc(C2(C(=O)NS(=O)(=O)Cc3ccc(C#N)cc3)CC2)cc1 [Compound 34]
99

New cases:
Provide PP2C Activity (25 μm) PYL5 value for the following compound: N#Cc1ccc(CS(=O)(=O)NC(=O)C2(c3cccc(Cl)c3)CCOCC2)cc1 [Compound 58]
83

Answer with the recorded PP2C Activity (25 μm) PYL5 of CC(C)(C(=O)NS(=O)(=O)Cc1ccccc1C#N)c1ccccc1 [Compound 1] only.
106

In one line, give reported PP2C Activity (25 μm) PYL5 of the entry CC(C)(C(=O)NS(=O)(=O)Cc1ccc(F)cc1)c1ccccc1 [Compound 4] .
106

Quick one: give measured PP2C Activity (25 μm) PYL5 for CCc1ccc(C(C)(C)C(=O)NS(=O)(=O)Cc2ccc(C#N)cc2)cc1 [Compound 20]
88

Query PP2C Activity (25 μm) PYL5 for CC(C)(C(=O)NS(=O)(=O)Cc1ccccc1)c1ccccc1 [Compound 5]
86

----------
- measured-target: PYL9 (Arabidopsis thaliana, UniProt Q84MC7)
- Construct: 6X-His; made in house; host or cells: E. coli BL21[DE3]pLysS
- Sequence (Q84MC7 whole entry): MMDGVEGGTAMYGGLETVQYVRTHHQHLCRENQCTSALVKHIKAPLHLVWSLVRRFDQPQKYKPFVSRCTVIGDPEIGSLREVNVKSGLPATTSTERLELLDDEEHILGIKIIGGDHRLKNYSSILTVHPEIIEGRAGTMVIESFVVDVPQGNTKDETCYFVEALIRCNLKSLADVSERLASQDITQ
- Sequence (Q9CAJ0 23-511 partner): as the sequence (Q9CAJ0 23-511 partner) above
- protocol-details: receptor-mediated PP2C (HAB1) inhibition in vitro assay
- Type: biochemical
- condition-notes: Table VII; read-out: PP2C Dose Curves PYL9 (IC50)
measured-endpoint: pIC50
Keep in mind that pIC50 stands for -log10 of concentration in molar terms.

Before answering, review these 10 worked examples.
// Input: CC(C)(C(=O)NS(=O)(=O)Cc1ccc(C#N)cc1)c1ccc(Cl)c(Cl)c1 [Compound 7] . Output its pIC50 only.
4.73

Report pIC50 for N#Cc1ccc(CS(=O)(=O)NC(=O)C2(c3cccc(F)c3)CC2)cc1 [Compound 46]
4.40

Determine its reported pIC50: N#Cc1ccc(CS(=O)(=O)NC(=O)C2(c3ccc(F)cc3)CCC2)cc1 [Compound 32]
5.85

Answer with the recorded pIC50 for the compound listed here: N#Cc1ccc(CS(=O)(=O)NC(=O)C2(c3ccc(F)cc3)CCCCC2)cc1 [Compound 51]
7.40

Return pIC50 for the following compound: CC(C)(C(=O)NS(=O)(=O)Cc1ccc(C#N)cc1)c1ccccc1 [Compound 23]
5.73

Write down pIC50 measured for item N#Cc1ccc(CS(=O)(=O)NC(=O)C2(c3cccc(C#N)c3)CC2)cc1 [Compound 50]
5.24

Assign pIC50 to the following record: N#Cc1ccc(CS(=O)(=O)NC(=O)C2(c3cccc(F)c3)CCCC2)cc1 [Compound 26]
5.15

Identify measured pIC50 associated with CC(C)(C(=O)NS(=O)(=O)Cc1ccc([N+](=O)[O-])cc1)c1ccccc1 [Compound 3]
5.52

Report measured pIC50; entry is N#Cc1ccc(CS(=O)(=O)NC(=O)C2(c3ccc(F)cc3)CC2)cc1 [Compound 35]
4.57

Note pIC50 for the compound shown: CC(C)(C(=O)NS(=O)(=O)Cc1ccc(C#N)cc1)c1ccc(F)cc1 [Compound 13]
5.79

Further cases:
Output measured pIC50 for this item: Cc1cccc(C2(C(=O)NS(=O)(=O)Cc3ccc(C#N)cc3)CCCC2)c1 [Compound 43]
4.55

Dear colleague, please send me the reported pIC50 for N#Cc1ccc(CS(=O)(=O)NC(=O)C2(c3ccc(F)cc3)CCCC2)cc1 [Compound 24] when you can.
6.22

Let me know recorded pIC50 for CCC(CC)(C(=O)NS(=O)(=O)Cc1ccc([N+](=O)[O-])cc1)c1ccccc1 [Compound 19] , thanks.
5.41

Return pIC50 (reported value) for this compound: Cc1ccccc1C1(C(=O)NS(=O)(=O)Cc2ccc(C#N)cc2)CC1 [Compound 44]
4.67

// Input: CC(C)(C(=O)NS(=O)(=O)Cc1ccc(C#N)cc1)c1ccc(Cl)cc1 [Compound 6] . Output its pIC50 only.
5.05

----------
- measured-target: PYL9 (Arabidopsis thaliana, UniProt Q84MC7)
- Construct: 6X-His; made in house; host or cells: E. coli BL21[DE3]pLysS
- protocol-details: receptor-mediated PP2C (HAB1) inhibition in vitro assay
- Type: biochemical
- condition-notes: Table VII; read-out: PP2C Dose Curves PYL9 (IC50)
Recorded IC50 by entry
API: value field is a number in µM; no unit string.

Quote IC50 reported for COc1ccccc1C1(C(=O)NS(=O)(=O)Cc2ccc(C#N)cc2)CCC1 please.
17.4

Next:
Name the recorded IC50 of the item N#Cc1ccc(CS(=O)(=O)NC(=O)C2(c3ccccc3F)CCCC2)cc1 in your answer.
6.69

Kindly indicate its recorded IC50. Item: N#Cc1ccc(CS(=O)(=O)NC(=O)C2(c3ccccc3)CCC2)cc1
1.27

Assign IC50 to the following record: CC(C)(C(=O)NS(=O)(=O)Cc1ccc(C#N)cc1)c1cccc(C#N)c1
8.29

----------
- measured-target: PYL6 (Arabidopsis thaliana, UniProt Q8S8E3)
- Construct: 6X-His; made in house; host or cells: E. coli BL21[DE3]pLysS
- Sequence (Q8S8E3 whole entry): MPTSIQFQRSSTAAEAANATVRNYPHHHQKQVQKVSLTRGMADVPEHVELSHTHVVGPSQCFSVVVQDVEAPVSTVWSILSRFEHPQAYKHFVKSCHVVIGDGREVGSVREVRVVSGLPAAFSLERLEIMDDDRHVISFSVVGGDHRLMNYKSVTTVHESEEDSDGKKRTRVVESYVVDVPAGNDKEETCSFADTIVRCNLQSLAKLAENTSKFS
- Sequence (Q9CAJ0 23-511 partner): as the sequence (Q9CAJ0 23-511 partner) above
- protocol-details: receptor-mediated PP2C (HAB1) inhibition in vitro assay
- Type: biochemical
- condition-notes: 50 uM of the test compound
measured-endpoint: remaining activity at 50 µM (%)
Number in %, nothing else.

For orientation, consider the following solved cases.
Please indicate recorded remaining activity at 50 µM of N#Cc1ccc(CS(=O)(=O)NC(=O)C(c2ccc(F)cc2)c2ccc(F)cc2)cc1 measured with PYL6 (Arabidopsis thaliana, UniProt Q8S8E3).
95.1

Answer with remaining activity at 50 µM of CC1(C)CCC(C(=O)NS(=O)(=O)Cc2ccc(C#N)cc2)(c2ccc(F)cc2)CC1 measured for PYL6 (Arabidopsis thaliana, UniProt Q8S8E3).
46.6

Write remaining activity at 50 µM of O=C(NS(=O)(=O)Cc1ccc([N+](=O)[O-])cc1)C1(c2ccccc2)CCCCC1 ; system used: PYL6 (Arabidopsis thaliana, UniProt Q8S8E3)
108

Next:
Answer briefly: remaining activity at 50 µM recorded on PYL6 (Arabidopsis thaliana, UniProt Q8S8E3) for CC(C)COC(=O)NS(=O)(=O)Cc1ccc(C#N)cc1
58.9

Report value only: remaining activity at 50 µM, PYL6 (Arabidopsis thaliana, UniProt Q8S8E3), N#Cc1ccc(CS(=O)(=O)NC(=O)C(C2CCCCC2)C2CCCCC2)cc1
91

Fill: remaining activity at 50 µM (PYL6 (Arabidopsis thaliana, UniProt Q8S8E3)) for this compound N#Cc1ccc(CS(=O)(=O)NC(=O)C2(c3ccccc3)CCCCC2)cc1
72.6

Consider the compound CC1CCC(C(=O)NS(=O)(=O)Cc2ccc(C#N)cc2)(c2ccc(F)cc2)CC1 (centres unmarked) tested on PYL6 (Arabidopsis thaliana, UniProt Q8S8E3); state its remaining activity at 50 µM.
46.6

Please tell me the measured remaining activity at 50 µM for O=C(NS(=O)(=O)Cc1ccc(F)cc1)C1(c2ccccc2)CCCCC1 ; system: PYL6 (Arabidopsis thaliana, UniProt Q8S8E3).
109
